target: TGF-β1 (Homo sapiens); test: Biopanning of phage-displayed 15-aa peptide library on biotinylated TGF-β1, number of colonies per sequence; type: binding; parameters: purchased Roche; host or cells: added to Mv-1-Lu (CCL-64) mink lung epithelial cells; settings: clones carrying the sequence among 108 colonies after the last biopanning cycle; approximate indication of affinity for TGF-β1
Sequence (P01137 279-390 limits assumed, species assumed): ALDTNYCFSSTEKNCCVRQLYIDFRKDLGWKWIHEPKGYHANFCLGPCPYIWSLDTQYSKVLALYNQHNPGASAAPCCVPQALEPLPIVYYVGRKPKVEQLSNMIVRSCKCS
Ends that are not written are not given here.
Each item that follows carries a reported No. colonies.
Reply: number alone, nothing else.

**Q:** Kindly indicate its recorded No. colonies. Item: DRRIFWWSLRSAPGA [SEQ ID NO: 1]
**A:** 6

**Q:** Give the measured No. colonies for KRIWFIPRSSWYERA [SEQ ID NO: 17, KRIWFIPRSSWYERA]
**A:** 3

**Q:** Check the records and state No. colonies for SGRRHLHRHHIFSLP [SEQ ID NO: 14]
**A:** 2

**Q:** Give the measured No. colonies for FVWVRFHRLPRQIYT [SEQ ID NO: 10]
**A:** 1

---
**Q:** Note No. colonies for the sequence shown: RKWFLQHRRMPVSVL [SEQ ID NO: 13]
**A:** 6

**Q:** Please supply the value of reported No. colonies for the item RFFTRFPWHYHASRL [SEQ ID NO: 3]
**A:** 41

**Q:** Report measured No. colonies; entry is WHWRHRIPLQLAAGR [SEQ ID NO: 8]
**A:** 2

**Q:** Please give measured No. colonies of the following entry: RRWVRYPVHLHSPIV [SEQ ID NO: 5]
**A:** 1

**Q:** Note down No. colonies recorded for GWITFHRRHHDRVLS [SEQ ID NO: 15]
**A:** 1

====

molecular target: TGF-β1 (Homo sapiens); format: cell-based; set-up: purchased Roche; host or cells: added to Mv-1-Lu (CCL-64) mink lung epithelial cells
Ends that are not written are not given here.
Catalogue of % Inhibition of in vitro TGF-β1 biological activity readings, one per entry.
Give the quantity in %, number only.

Check out these entries, answers already filled in.
**Q:** Identify measured % Inhibition of in vitro TGF-β1 biological activity corresponding to WFIPRSSWY [SEQ ID NO: 28, WFIPRSSWY]
**A:** 3.1

**Q:** Please list % Inhibition of in vitro TGF-β1 biological activity recorded for the sequence KRIWFIPRSSWY [SEQ ID NO: 34, KRIWFIPRSSWY]
**A:** 34.4

New cases:
**Q:** Please supply the value of reported % Inhibition of in vitro TGF-β1 biological activity for the item RIWFIPRSSWYERA [SEQ ID NO: 24, RIWFIPRSSWYERA]
**A:** 9.4

**Q:** Quick one: give measured % Inhibition of in vitro TGF-β1 biological activity for KRIWFIPRSSWYER [SEQ ID NO: 33, KRIWFIPRSSWYER]
**A:** 31.4

**Q:** Please list % Inhibition of in vitro TGF-β1 biological activity recorded for the sequence FIPRSSWYERA [SEQ ID NO: 30, FIPRSSWYERA]
**A:** −0.3

**Q:** Using the record for RIWFIPRSSWYER [SEQ ID NO: 25, RIWFIPRSSWYER] , state its measured % Inhibition of in vitro TGF-β1 biological activity.
**A:** 6.2

**Q:** Dear colleague, please send me the reported % Inhibition of in vitro TGF-β1 biological activity for PRSSWYERA [SEQ ID NO: 32, PRSSWYERA] when you can.
**A:** 3.8

**Q:** Report % Inhibition of in vitro TGF-β1 biological activity, nothing else, for this sequence: IWFIPRSSWYE [SEQ ID NO: 27, IWFIPRSSWYE]
**A:** 1.4
